Reference source for all entries: the supplement of paper PMC10567573

B1: LARP4 (parent)
chain: WTVANMEEIKKLTTDPDLILEVLR

# Variants of: B1
# Assay text: protein stability index of a GFP-peptide fusion (GPS, HEK-293T) (PSI 1-6); higher = more stable;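 also: lentivirally expressed fusions sorted by FACS into six bins by GFP to DsRed ratio, PSI derived from sequencing read proportions per bin multiplied by bin number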
# Stated conditions: c terminus: a fixed tail appended
This listing pairs variants with measured protein stability index.

Solved entries:
# Variant string, protein stability index
rows = [
    ("R24C", 2.3),
    ("D17H", 1.88),
    ("V22M", 1.91),
    ("K10G", 1.99),
]

Exercise: Dear colleague, I am looking for the recorded protein stability index of the following variant: `R24L`
Key: 1.12

Exercise: Please do the same for `I9H` as well.
Key: 2.65

Exercise: Please do the same for `K10A` as well.
Key: 2.12
